# change of melting temperature, mutant - wild type (higher = more stable) annotations
B1: DNA-binding protein HU, P0A3H0 (parent)
chain: MNKTELINAVAETSGLSKKDATKAVDAVFDSITEALRKGDKVQLIGFGNFEVRERAARKGRNPQTGEEMEIPASKVPAFKPGKALKDAVK

variants of: B1; conditions: Geobacillus stearothermophilus; pH 7; Thermal; CD; Sodium phosphate 5 mM; NaCl 0.2 M; reversible: yes; structure 1HUE; whole UniProt chain shown
Number only, in °C; omit the unit.

Worked cases, change of melting temperature, mutant - wild type (higher = more stable) given:
   changes  assay_result
0     A27S          -5.5
1     E34D          -2.3
2     V42I          -3.8
3     K38N          -2.4

Reported change of melting temperature, mutant - wild type (higher = more stable) of M69I : 0

Reported change of melting temperature, mutant - wild type (higher = more stable) of S31T : 1.9

Reported change of melting temperature, mutant - wild type (higher = more stable) of G15E : -9.9

Reported change of melting temperature, mutant - wild type (higher = more stable) of A56S : -0.6
